# Lookup of reported IC50 keyed by entry
measurementTarget: AHR (Homo sapiens)
Construct: U87 MG glioblastoma cells (ATCC #HTB-14) endogenously expressing AHR; endogenous in cells; host or cells: U87 MG glioblastoma cells (ATCC #HTB-14)
Sequence (P35869 11-848): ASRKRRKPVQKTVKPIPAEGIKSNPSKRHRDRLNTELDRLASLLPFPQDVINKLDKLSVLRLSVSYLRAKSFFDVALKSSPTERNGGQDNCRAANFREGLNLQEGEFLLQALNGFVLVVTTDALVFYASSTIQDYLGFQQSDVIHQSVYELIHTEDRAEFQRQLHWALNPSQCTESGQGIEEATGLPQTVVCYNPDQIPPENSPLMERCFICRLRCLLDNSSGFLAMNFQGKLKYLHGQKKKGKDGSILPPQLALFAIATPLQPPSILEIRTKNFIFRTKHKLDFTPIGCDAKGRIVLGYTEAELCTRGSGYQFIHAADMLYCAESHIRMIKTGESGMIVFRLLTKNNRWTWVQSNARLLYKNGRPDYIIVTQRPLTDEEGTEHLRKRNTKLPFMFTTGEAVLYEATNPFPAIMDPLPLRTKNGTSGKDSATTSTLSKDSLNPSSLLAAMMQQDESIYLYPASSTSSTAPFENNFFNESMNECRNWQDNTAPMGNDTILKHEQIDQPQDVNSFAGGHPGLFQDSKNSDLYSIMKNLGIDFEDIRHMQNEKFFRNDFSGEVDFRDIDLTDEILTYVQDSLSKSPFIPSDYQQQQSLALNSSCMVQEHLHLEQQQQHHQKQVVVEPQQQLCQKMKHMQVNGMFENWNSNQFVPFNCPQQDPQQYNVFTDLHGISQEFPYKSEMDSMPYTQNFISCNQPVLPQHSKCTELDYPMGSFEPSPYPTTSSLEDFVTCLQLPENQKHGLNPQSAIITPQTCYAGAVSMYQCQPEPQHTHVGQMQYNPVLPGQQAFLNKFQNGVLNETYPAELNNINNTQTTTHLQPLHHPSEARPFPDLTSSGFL
measurementDescription: In vitro assay 1: antagonism in human cell line (AHR transactivation, firefly luciferase reporter, kynurenic acid prestimulated)
Assay type: cell-based
testSettings: AHR Antagonism Human IC50 [M]

The following compounds have reported results that may help.
>  <compound>
COc1ccc(-c2nc3c4cc(C5CC5)ccc4nc(N[C@@H]4CCCCNC4=O)n3n2)cc1

>  <IC50>
> 5.71e-06 M

$$$$
>  <compound>
CCCCNC(=O)[C@H](C)Nc1nc2c(Br)cccc2c2nc(-c3ccc(Cl)cc3OC(F)(F)F)nn12

>  <IC50>
> 2e-06 M

$$$$

Now for the compound whose IC50 we want.
Notebook: COc1cccc(-c2nc3c4c(C)cccc4nc(NC4CCNC4=O)n3n2)c1 (single isomer, unassigned) [Example 191] , IC50 read as 1.96e-07 M
